system name: human ether-à-go-go-related gene (hERG) potassium channel (human);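 note: peak tail current of the secondary pulse compared with the same well before compound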
Sequence (Q12809 whole entry, looked up): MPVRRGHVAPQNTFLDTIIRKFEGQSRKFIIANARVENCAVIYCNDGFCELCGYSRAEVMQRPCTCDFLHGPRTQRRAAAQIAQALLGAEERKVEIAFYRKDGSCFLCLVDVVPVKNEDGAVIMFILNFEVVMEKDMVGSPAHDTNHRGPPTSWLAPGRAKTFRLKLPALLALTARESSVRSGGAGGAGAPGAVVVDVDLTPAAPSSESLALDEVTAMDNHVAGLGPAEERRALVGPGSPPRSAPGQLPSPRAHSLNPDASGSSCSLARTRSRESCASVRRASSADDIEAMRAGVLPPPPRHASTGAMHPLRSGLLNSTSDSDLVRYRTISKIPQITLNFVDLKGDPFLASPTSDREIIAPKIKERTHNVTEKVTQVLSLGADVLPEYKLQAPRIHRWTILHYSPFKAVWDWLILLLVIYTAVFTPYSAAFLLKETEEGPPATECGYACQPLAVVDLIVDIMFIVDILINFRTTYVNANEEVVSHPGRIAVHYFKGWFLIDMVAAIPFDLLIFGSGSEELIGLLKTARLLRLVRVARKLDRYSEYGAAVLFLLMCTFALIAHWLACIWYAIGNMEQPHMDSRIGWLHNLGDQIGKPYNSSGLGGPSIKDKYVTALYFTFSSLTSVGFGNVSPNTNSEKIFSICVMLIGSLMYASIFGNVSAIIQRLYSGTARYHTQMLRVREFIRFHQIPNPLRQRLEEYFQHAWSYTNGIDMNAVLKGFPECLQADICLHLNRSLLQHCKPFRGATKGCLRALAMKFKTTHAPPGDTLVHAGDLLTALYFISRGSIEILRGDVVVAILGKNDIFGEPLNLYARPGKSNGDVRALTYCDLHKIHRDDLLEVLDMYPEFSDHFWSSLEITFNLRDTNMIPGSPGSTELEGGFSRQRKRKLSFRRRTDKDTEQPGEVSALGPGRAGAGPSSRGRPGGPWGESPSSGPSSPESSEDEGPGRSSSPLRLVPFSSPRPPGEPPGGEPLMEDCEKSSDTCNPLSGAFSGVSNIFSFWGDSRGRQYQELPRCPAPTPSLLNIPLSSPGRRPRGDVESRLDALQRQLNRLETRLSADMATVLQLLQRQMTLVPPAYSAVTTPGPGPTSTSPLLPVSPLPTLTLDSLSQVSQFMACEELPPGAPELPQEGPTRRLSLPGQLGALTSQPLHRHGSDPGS
assay info: primary screen, population patch clamp on CHO cells stably expressing hERG; higher = less effect of the substance
Among all 310,000 compounds or so, about 14,000 (4.5%) showed an effect of 50% or more. The effect is printed as a negative number. For the sample, strong results were picked, then their nearest neighbours and some compounds at random.
metric name: hERG current change (%, negative = inhibition) at 10uM (%)
Answers are plain numbers, in %.

C/C(=N/NC(=O)c1ccc(Br)o1)C(C)C: -1.43

Batch request: hERG current change (%, negative = inhibition) at 10uM for each of the following compounds.
1. CCN1C(=O)c2cccc3c(NS(=O)(=O)c4ccc(NC(C)=O)cc4)ccc1c23
2. CCC12CCCN3CCc4c(n(c5ccccc45)C(O)(C(=O)OC)C1)C32 (centres unmarked)
3. CC1(C)[C@H]2CC=C(CN3CCC(N4CCC(C(=O)N5CCCC5)CC4)CC3)[C@@H]1C2
4. C/C(=N\Nc1nc2ccccc2[nH]1)c1cccs1
5. O=C(Nc1cccnc1Cl)c1ccc(S(=O)(=O)N2CCCCCC2)cc1
6. Cc1ccc(C(=O)N2CCCC(Nc3ccc(F)cc3)C2)cc1C (centres unmarked)
7. Cn1nc(-c2ccccc2F)c2cc(C(=O)N3CCN(C(=O)c4ccco4)CC3)sc21
8. CC(=O)c1ccc(N2CCN(C(=O)c3cc4c(-c5ccccc5F)nn(C)c4s3)CC2)cc1

[-8.89, -28.9, -25.1, -19.2, -8.39, 0.463, -57.2, -20.7]

Field: hERG current change (%, negative = inhibition) at 10uM. Fill in for each record below.
1. COC(=O)[C@@H]1[C@H]2C[C@H]3c4[nH]c5ccccc5c4CCN3C[C@@H]2CC[C@@H]1O.Cl
2. N#Cc1ccc(C23CC4(C2)[C@H](CN(P(=O)(c2ccccc2)c2ccccc2)[C@@H]4c2ccccc2)C3c2ccc(Cl)nc2)cc1 (some centres unmarked)
3. Cc1ncc(CN2CCC(N3CCC(C(=O)N4CCCC4)CC3)CC2)s1
4. COc1cccc(-n2cc(CNC(=O)C3CCC(=O)N(C4CC4)C3)cn2)c1 (centres unmarked)
5. CS(=O)(=O)N1CCN(c2ccccc2NC(=O)c2cc3ccccc3o2)CC1
6. CC[C@]12CCCN3CCc4c(n(c5ccccc45)[C@@](O)(C(=O)OC)C1)[C@@H]32
7. Cc1nc(NC(=O)/C=C/c2ccccc2)sc1C(=O)Nc1ccccc1Cl
8. COCc1ccc(CN2CCC(N3CCC(C(=O)N4CCCC4)CC3)CC2)o1

[-22, -8, -18.1, -11, 7.78, -80.9, 13.3, 8.86]

---

system name: human ether-à-go-go-related gene (hERG) potassium channel (human);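 note: peak tail current of the secondary pulse compared with the same well before compound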
assay info: primary screen, population patch clamp on CHO cells stably expressing hERG; higher = less effect of the substance
Hit rate of the full screen: of about 310,000 compounds, about 14,000 (4.5%) showed an effect of 50% or more. The effect is printed as a negative number. This excerpt belongs to a sample that is enriched for strong results.
Please provide measured hERG current change (%, negative = inhibition) at 10uM for the entries that follow.
Give bare numbers, in %.

CN(CC(=O)Nc1ccc(Cl)c(C(F)(F)F)c1)C(=O)/C=C/c1ccco1: 5.99
O=C(Nc1ccc2snnc2c1)N1CCSCC1: 6.76

Would you mind listing hERG current change (%, negative = inhibition) at 10uM for each of the following compounds?
1. CCOc1ccc(CCNC(=O)COC(=O)/C=C/c2ccco2)cc1OCC
2. O=C1/C(=C/c2ccccc2F)SC(=S)N1CC(=O)N1CCCCC1c1cccnc1 (centres unmarked)
3. N/C(=N\OC(=O)Cc1ccc([N+](=O)[O-])cc1)c1ccc([N+](=O)[O-])cc1
4. CC(CC(=O)N1CCN(S(=O)(=O)c2ccccc2)CC1)n1cncn1 (centres unmarked)

12.9
1.73
-24.4
20.1

For every record below, what is its hERG current change (%, negative = inhibition) at 10uM?
1. OCc1nc2ccccc2n1CC(O)COc1ccccc1 (centres unmarked)
2. Cc1nc2ccccc2n1CC(O)COc1ccc(Br)cc1 (centres unmarked)
3. O=C(Nc1ccc(F)cc1)N1CCN(c2ccc(F)cc2)CC1
4. CC(C)=C1C2CCC1C(C(=O)Nc1sc(C)c(-c3ccc(C(C)C)cc3)c1C(N)=O)C2C(=O)O (centres unmarked)

1: 6.25; 2: -49.9; 3: -67.8; 4: -22.5

Looking for the measured hERG current change (%, negative = inhibition) at 10uM of CC(=O)c1ccc(N2CCN(C(=O)Nc3ccc(Cl)cc3)CC2)cc1 , can you help?
-8.35

Source of measurements: paper PMC4336329
